- target.or.test.system: CCKB receptor (Cavia porcellus)
- Construct: Male guinea pig brain tissues were prepared according to the modified method described by Saita et al; from tissue; host or cells: guinea pig cerebral cortex membranes
- Sequence (H0VZC5 1-426): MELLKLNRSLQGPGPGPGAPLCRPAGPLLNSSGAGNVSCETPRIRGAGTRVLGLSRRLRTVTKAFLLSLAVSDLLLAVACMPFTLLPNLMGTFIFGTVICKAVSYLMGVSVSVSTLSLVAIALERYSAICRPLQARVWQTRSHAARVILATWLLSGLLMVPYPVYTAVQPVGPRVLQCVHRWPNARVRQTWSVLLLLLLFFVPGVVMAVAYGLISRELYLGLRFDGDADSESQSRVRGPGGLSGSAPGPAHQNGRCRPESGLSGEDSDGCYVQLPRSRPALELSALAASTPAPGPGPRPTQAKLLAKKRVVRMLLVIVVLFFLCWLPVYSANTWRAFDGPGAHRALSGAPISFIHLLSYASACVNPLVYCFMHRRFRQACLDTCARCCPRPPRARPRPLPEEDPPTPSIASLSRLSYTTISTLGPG
- test.method.notes: 125I-CCK-8 receptor binding assay, CCKB (guinea pig cerebral cortex membranes)
- condition.summary: Table 2, phenylpyrazolinone amides; guinea pig cerebral cortex, 125I-Bolton-Hunter CCK 25 pM; read-out: IC50 CCKB
pIC50: −log10 of the molar value.
quantity.measured: pIC50

1. Cc1c(NC(=O)Cc2c[nH]c3ccccc23)c(=O)n(-c2ccccc2)n1C
2. Cc1c(NC(=O)CCc2c[nH]c3ccccc23)c(=O)n(-c2ccccc2)n1C
3. Cc1c(NC(=O)c2cc3ccccc3[nH]2)c(=O)n(-c2ccccc2)n1C
Problem: Rank descending by pIC50: all 3 compounds from above. To answer, arrange all of the labels according to the requested order.
Solution: 3, 2, 1
